Give IC50 for every item shown.
- target_or_system: TLR7 (Homo sapiens, UniProt Q9NYK1)
- Sequence (Q9NYK1 27-1049): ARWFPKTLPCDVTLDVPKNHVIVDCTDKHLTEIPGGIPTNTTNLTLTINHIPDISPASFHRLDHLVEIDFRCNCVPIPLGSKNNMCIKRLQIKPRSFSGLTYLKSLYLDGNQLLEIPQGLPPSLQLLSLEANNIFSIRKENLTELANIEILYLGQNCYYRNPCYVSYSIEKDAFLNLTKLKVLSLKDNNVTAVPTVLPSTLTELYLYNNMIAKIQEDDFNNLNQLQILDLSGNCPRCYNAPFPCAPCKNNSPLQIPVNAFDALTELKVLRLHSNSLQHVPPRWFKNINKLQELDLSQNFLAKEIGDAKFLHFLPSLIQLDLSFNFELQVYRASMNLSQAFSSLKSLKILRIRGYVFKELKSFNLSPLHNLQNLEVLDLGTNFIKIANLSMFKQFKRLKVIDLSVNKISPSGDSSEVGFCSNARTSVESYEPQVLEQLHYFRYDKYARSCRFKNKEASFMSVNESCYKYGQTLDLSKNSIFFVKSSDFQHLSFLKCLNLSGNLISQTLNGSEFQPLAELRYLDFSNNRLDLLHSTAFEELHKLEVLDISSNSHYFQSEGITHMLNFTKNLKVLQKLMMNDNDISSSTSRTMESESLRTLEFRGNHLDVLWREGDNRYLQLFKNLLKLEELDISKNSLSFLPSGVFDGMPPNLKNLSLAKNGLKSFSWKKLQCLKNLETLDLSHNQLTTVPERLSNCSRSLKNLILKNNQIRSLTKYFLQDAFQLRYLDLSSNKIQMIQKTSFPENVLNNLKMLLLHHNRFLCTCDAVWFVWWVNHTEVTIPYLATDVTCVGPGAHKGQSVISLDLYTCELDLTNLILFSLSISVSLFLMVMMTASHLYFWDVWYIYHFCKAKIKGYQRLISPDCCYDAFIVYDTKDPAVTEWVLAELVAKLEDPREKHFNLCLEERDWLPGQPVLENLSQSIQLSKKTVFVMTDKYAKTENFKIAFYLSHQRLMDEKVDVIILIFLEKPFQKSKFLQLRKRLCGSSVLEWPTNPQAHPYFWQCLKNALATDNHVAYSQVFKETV
- method_description: HEK/293 TLR7 Cell Assay
- experimental_setup: TLR7/NFKb HEK cells, R848 agonist 10 uM final concentration, Steady-Glo readout; read-out: TLR7 potency

Which IC50 reading was recorded for the compound N#Cc1ncc(N2C[C@@H](C(F)(F)F)O[C@@H](C(=O)NCC3(F)CCNCC3)C2)c2cccnc12 (single isomer, unassigned) [Example 317] ? < 75 nM

What IC50 value was documented for this compound, C[C@H]1C[C@@H](NC(=O)[C@@H](C)N2CCC(O)CC2)CN(c2ccc(C#N)c3nccnc23)C1 (single isomer, unassigned) [Example 103] ? > 150 nM

Recorded IC50 of C[C@@H]1CN(c2ccc(C#N)c3nccnc23)C[C@H](C(=O)NCC2(F)CCNCC2)O1 [Example 290] , please. < 75 nM

Looking for the measured IC50 of CN1CC[C@](F)(CNC(=O)[C@@H]2CN(c3ccc(C#N)c4nccnc34)C[C@H](C(F)(F)F)O2)C1 (single isomer, unassigned) [Example 358] , can you help? < 75 nM

Field request: IC50 | item: C[C@H]1C[C@@H](NC(=O)C[C@H](O)CN(C)C)CN(c2ccc(C#N)c3nccnc23)C1 [Example 210] < 75 nM

Which IC50 value belongs to CONC(=O)CCCN[C@@H]1C[C@H](C)CN(c2ccc(C(F)(F)F)c3nccnc23)C1 [Example 52] ? < 75 nM

Given the compound C[C@@H]1CN(c2ccc(C#N)c3nccnc23)C[C@H](C(=O)NCCS(C)(=O)=O)O1 [Example 256] , what is its reported IC50? < 75 nM

Which value of IC50 has been reported for O=C(CC1(F)CCNCC1)N[C@@H]1C[C@H](C(F)(F)F)CN(c2ccc(C(F)(F)F)c3ncccc23)C1 [Example 117] in the records? < 75 nM

Value lookup for IC50; key = C[C@H]1C[C@@H](N)CN(c2cc(F)c(C#N)c3ncccc23)C1 [Example 57] < 75 nM

Data request, read-out IC50, for Cc1ccc(N2C[C@@H](NC(=O)CC3CCN(C(C)C)CC3)CC(F)(F)C2)c2cccnc12 [Example 111] > 150 nM

Please report the recorded IC50 for N#Cc1ccc(N2C[C@H](CN3CC(O)C3)O[C@H](C(F)(F)F)C2)c2nccnc12 (single isomer, unassigned) [Example 361] . < 75 nM

Using the record for Cc1ccc(N2C[C@@H](C)C[C@@H](NC(=O)[C@@H](N)CC(N)=O)C2)c2cccnc12 [Example 130] , report its IC50. 75 to 150 nM

Using the record for C[C@H]1C[C@@H](NC(=O)CC2(F)CCNCC2)CN(c2ccc(C#N)c3nccnc23)C1 [Example 114] , report its IC50. < 75 nM

# input compound: C[C@@H]1CN(c2ccc(C#N)c3nccnc23)C[C@H](CN2CC[C@H](O)C2)O1 [Example 220] ; wanted: its IC50 < 75 nM

* * *

Exercise: state measured IC50 for each of the compounds provided.
- target_or_system: TLR8 (Homo sapiens)
- Construct: expressed in transfected cells; host or cells: HEK/293 reporter cells (NF-kB luciferase)
- Sequence (Q9NR97 27-1041): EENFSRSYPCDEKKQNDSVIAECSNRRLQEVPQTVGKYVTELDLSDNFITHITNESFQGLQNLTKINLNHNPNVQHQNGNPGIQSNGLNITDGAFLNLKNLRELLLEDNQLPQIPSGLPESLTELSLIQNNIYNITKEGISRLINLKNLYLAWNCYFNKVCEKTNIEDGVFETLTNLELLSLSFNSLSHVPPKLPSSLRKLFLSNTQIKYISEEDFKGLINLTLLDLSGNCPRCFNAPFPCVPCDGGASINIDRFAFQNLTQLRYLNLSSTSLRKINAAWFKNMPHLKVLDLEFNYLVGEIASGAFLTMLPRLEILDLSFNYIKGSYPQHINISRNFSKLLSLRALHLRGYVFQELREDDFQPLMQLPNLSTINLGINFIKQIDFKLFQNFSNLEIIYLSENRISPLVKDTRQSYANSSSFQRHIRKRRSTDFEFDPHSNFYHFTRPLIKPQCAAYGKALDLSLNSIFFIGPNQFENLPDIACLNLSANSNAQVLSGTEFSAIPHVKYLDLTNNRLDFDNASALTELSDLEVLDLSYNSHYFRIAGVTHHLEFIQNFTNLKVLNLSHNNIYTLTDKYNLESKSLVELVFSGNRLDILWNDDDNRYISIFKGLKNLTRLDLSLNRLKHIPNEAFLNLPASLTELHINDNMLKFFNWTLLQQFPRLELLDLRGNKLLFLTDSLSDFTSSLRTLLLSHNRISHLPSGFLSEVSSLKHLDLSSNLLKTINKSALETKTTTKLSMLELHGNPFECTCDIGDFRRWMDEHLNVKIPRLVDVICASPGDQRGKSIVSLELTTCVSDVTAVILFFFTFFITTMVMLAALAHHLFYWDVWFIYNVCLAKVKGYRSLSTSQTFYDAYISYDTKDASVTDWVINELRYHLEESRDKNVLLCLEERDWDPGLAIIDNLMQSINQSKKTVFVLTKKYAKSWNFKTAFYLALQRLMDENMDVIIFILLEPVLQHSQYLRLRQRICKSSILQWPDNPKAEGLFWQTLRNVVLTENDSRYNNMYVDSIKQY
- method_description: HEK/293 TLR8 Cell Assay
- Format: cell-based
- experimental_setup: HEK cells, R848 agonist 30 uM final concentration, Steady-Glo readout; read-out: TLR8 potency

So what does the record say about IC50 for C[C@H]1C[C@@H](NC(=O)CC2CN(C)C2)CN(c2cc(F)c(C#N)c3ncccc23)C1 ? > 150 nM

What measured IC50 goes with C[C@@H]1CN(c2ccc(C#N)c3ncncc23)C[C@H](C(=O)NC[C@H]2CN(C)CCO2)O1 ? < 75 nM

For C[C@H]1C[C@@H](NC(=O)CC2(O)CCN(C)CC2)CN(c2ccc(C(F)(F)F)c3ncccc23)C1 , what is its reported IC50? < 75 nM

Tell me the measured IC50 of C[C@H]1C[C@@H](NC(=O)NCCN(C)C)CN(c2ccc(C(F)(F)F)c3nccnc23)C1 , please. < 75 nM

Recorded IC50 of CN1CCC(C(=O)N[C@@H]2C[C@H](C(F)(F)F)CN(c3ccc(C#N)c4ncccc34)C2)CC1 , please. < 75 nM

Which IC50 value belongs to C[C@@H]1CN(c2ccc(C#N)c3nccnc23)C[C@H](C(=O)NC[C@@H](C)O)O1 ? < 75 nM

Reported IC50, compound N#Cc1ccc(N2C[C@@H](C(F)(F)F)O[C@@H](C(=O)NCC3(F)CCNCC3)C2)c2nccnc12 (single isomer, unassigned) : ____ < 75 nM

Entry under review: N#Cc1ncc(N2C[C@H](N)C[C@H](C(F)(F)F)C2)c2cccnc12 . Reported IC50? 75 to 150 nM

Any idea what its IC50 is? The compound is Cc1ccc(N2C[C@H](NC(=O)CC3CCN(C(C)C)CC3)CC(F)(F)C2)c2cccnc12 > 150 nM

Can you look up the measured IC50 of Cc1noc([C@H]2CN(c3ccc(C#N)c4nccnc34)C[C@@H](C)O2)n1 (racemic) for me? < 75 nM

Requested read-out: IC50. Entry: C[C@H]1C[C@@H](NC(=O)CCN(C)C)CN(c2ccc(C#N)c3nccnc23)C1 < 75 nM

Reported IC50, compound Cc1c(F)cc(N2C[C@@H](C)C[C@@H](NC(=O)NCCN(C)C)C2)c2cccnc12 : ____ < 75 nM

Can you look up the measured IC50 of CN1CCN(CC(=O)N[C@@H]2C[C@H](C(F)(F)F)CN(c3ccc(C#N)c4ncccc34)C2)CC1 for me? < 75 nM

Dear colleague, I am looking for the recorded IC50 of the following compound: C[C@H]1C[C@@H](NC(=O)CC2(F)CCNCC2)CN(c2ccc(C#N)c3nccnc23)C1 < 75 nM

What does the data say about its IC50? Entry: CN1CCC(F)(CC(=O)N[C@@H]2C[C@H](C(F)(F)F)CN(c3ccc(C#N)c4ncncc34)C2)CC1 75 to 150 nM

Sample C[C@H]1C[C@@H](NC(=O)[C@@H](N)[C@@H](C)O)CN(c2ccc(C(F)(F)F)c3ncccc23)C1 — what was its IC50? < 75 nM

What value of IC50 has been recorded for this entry: C[C@@H]1CN(c2ccc(C#N)c3nccnc23)C[C@H](C(=O)NC[C@@H](O)CO)O1 < 75 nM

Which value of IC50 has been reported for N#Cc1ccc(N2C[C@@H](C(=O)NC[C@]3(F)CCNC3)O[C@@H](C(F)(F)F)C2)c2nccnc12 (single isomer, unassigned) in the records? < 75 nM

Quick check: IC50 of C[C@H]1C[C@@H](NC(=O)C2CCNCC2)CN(c2ccc(C(F)(F)F)c3ncccc23)C1 ? < 75 nM

Can you share its IC50? I mean this compound: C[C@H]1C[C@@H](NC(=O)NC2CCN(C)CC2)CN(c2ccc(C(F)(F)F)c3ncccc23)C1 < 75 nM

Which IC50 reading was recorded for the compound C[C@H]1C[C@@H](NCCN2CCOC2=O)CN(c2ccc(C(F)(F)F)c3ncccc23)C1 ? < 75 nM

Suppose we examine the compound N#Cc1ccc(N2C[C@H](NC(=O)CO)C[C@H](C(F)(F)F)C2)c2cccnc12 ; what IC50 value has been reported? > 150 nM

I'd like to know its IC50. The compound in question is C[C@H]1C[C@@H](NC(=O)NCCN(C)C)CN(c2ccc(C#N)c3nccnc23)C1 < 75 nM

Report IC50 for C[C@@H]1CN(c2cnc(C#N)c3ncccc23)C[C@H](C(=O)NC2CCC(N3CCOCC3)CC2)O1 (some centres unmarked) please. < 75 nM

Given N#Cc1ccc(N2C[C@@H](C(F)(F)F)O[C@@H](C(=O)NC[C@H](O)CO)C2)c2nccnc12 (single isomer, unassigned) , state its recorded IC50. > 150 nM

Entry under review: CC(=O)NCCN[C@@H]1C[C@H](C(F)(F)F)CN(c2ccc(C#N)c3ncccc23)C1 . Reported IC50? 75 to 150 nM

Look up IC50: C[C@@H](C(=O)N[C@@H]1C[C@H](C(F)(F)F)CN(c2ccc(C(F)(F)F)c3ncccc23)C1)N1CCN(C)CC1 (single isomer, unassigned) < 75 nM

# get_value(readout='IC50', item= COc1ncc(N2C[C@@H](C)C[C@@H](N)C2)c2cccnc12 ) < 75 nM

Fill in: IC50 of CN(C)CCNC(=O)N[C@@H]1C[C@H](C(F)(F)F)CN(c2ccc(C(F)(F)F)c3ncccc23)C1 is ___ < 75 nM

* * *

Please respond with reported IC50 for every item in the list.
- target_or_system: TLR7 (Homo sapiens, UniProt Q9NYK1)
- method_description: HEK/293 TLR7 Cell Assay
- experimental_setup: TLR7/NFKb HEK cells, R848 agonist 10 uM final concentration, Steady-Glo readout; read-out: TLR7 potency

Value lookup for IC50; key = N#Cc1ccc(N2C[C@H](NCCCS(N)(=O)=O)C[C@H](C(F)(F)F)C2)c2cccnc12 > 150 nM

Which IC50 is reported for this compound? C[C@H]1C[C@@H](NCCC2CCNC2=O)CN(c2ccc(C(F)(F)F)c3ncccc23)C1 (some centres unmarked) < 75 nM

Any idea what IC50 was measured for C[C@@H]1CN(c2cnc(C#N)c3ncccc23)C[C@H](C(=O)NCC2(F)CCN(C)CC2)O1 ? < 75 nM

Requested read-out: IC50. Entry: C[C@@H]1CN(c2ccc(C#N)c3nccnc23)C[C@H](C(=O)NCC(O)C(F)(F)F)O1 (some centres unmarked) < 75 nM

Would you mind telling me what IC50 value was observed for C[C@@H]1CN(c2cnc(C#N)c3ncccc23)C[C@H](CN2CCC(F)(CN)CC2)O1 ? < 75 nM

Which measured IC50 value corresponds to CC(=O)NCCN[C@@H]1C[C@H](C)CN(c2ccc(C(F)(F)F)c3nccnc23)C1 ? < 75 nM

Item C[C@H]1C[C@@H](NC(=O)[C@H]2CCCN2)CN(c2ccc(C#N)c3nccnc23)C1 has what recorded IC50? > 150 nM

Quick one: IC50 of C[C@H]1C[C@@H](NCCCS(N)(=O)=O)CN(c2ccc(C#N)c3nccnc23)C1 ? < 75 nM
